src = BigSolDB 2.1

# condition_context: in n-propanol, 308.2 K
reported_metric: solubility (mole fraction)
Give bare numbers.

O=c1cc(-c2ccc(O)cc2)oc2cc(O)cc(O)c12 has a reported solubility (mole fraction) of 0.000473

---

# condition_context: in water, 328.2 K
reported_metric: solubility (mole fraction)

O=c1cc(-c2ccc(O)cc2)oc2cc(O)cc(O)c12 has a reported solubility (mole fraction) of 2.81e-06

---

# condition_context: in n-propanol, 318.2 K
reported_metric: solubility (mole fraction)
Answers are plain numbers.

O=c1cc(-c2ccc(O)cc2)oc2cc(O)cc(O)c12 has a reported solubility (mole fraction) of 0.000564

---

# condition_context: in methanol, 298.2 K
reported_metric: solubility (mole fraction)

O=c1cc(-c2ccc(O)cc2)oc2cc(O)cc(O)c12 has a reported solubility (mole fraction) of 0.000148
